targetSystem: GR complex
assayComment: [35S]TBPS binding assay (inhibition of [35S]TBPS binding, cerebral cortex P2 homogenate)
Parameters: species or system rat
conditionParameters: 2 nM [35S]TBPS, rat cerebral cortex P2 homogenate
Flag rule - IC50 less than 0.1 µM flags True; the remaining entries get False.

{"molecule": "C[C@]12CC[C@](O)(C#CCCO)C[C@H]1CC[C@@H]1[C@@H]2CC[C@]2(C)[C@@H](C(=O)CSS(=O)(=O)O)CC[C@@H]12", "targetSystem": "GR complex", "label": "False"}
{"molecule": "C[C@]12CC[C@@H](O)C[C@@H]1CC[C@@H]1[C@@H]2CC[C@]2(C)[C@@H](C(=O)CO)CC[C@@H]12 [3α,21-dihydroxy-5α-pregnan-20-one]", "targetSystem": "GR complex", "label": "True"}
{"molecule": "CC(=O)[C@H]1CC[C@H]2[C@@H]3CC[C@@H]4C[C@@](O)(C#CCCO)CC[C@]4(C)[C@H]3C(=O)C[C@]12C", "targetSystem": "GR complex", "label": "False"}
{"molecule": "C[C@]12CC[C@@H](O)C[C@H]1CC[C@@H]1[C@@H]2CC[C@]2(C)[C@@H](C(=O)Cn3ccnc3)CC[C@@H]12", "targetSystem": "GR complex", "label": "True"}
{"molecule": "CC(=O)[C@H]1CC[C@H]2[C@@H]3CC[C@@H]4C[C@@](O)(C#CCn5ccnn5)CC[C@]4(C)[C@H]3CC[C@]12C", "targetSystem": "GR complex", "label": "False"}
{"molecule": "CC(=O)[C@H]1CC[C@H]2[C@@H]3CC[C@@H]4C[C@@](O)(CCCc5ccccc5)CC[C@]4(C)[C@H]3CC[C@]12C", "targetSystem": "GR complex", "label": "False"}
{"molecule": "CCN(CC)C(=O)c1ccc(C#CC2(O)CCC3(C)C(CCC4C3CCC3(C)C(C(C)=O)CCC43)C2)cc1 (centres unmarked)", "targetSystem": "GR complex", "label": "True"}
{"molecule": "C[C@]12CC[C@@H](O)C[C@H]1CC[C@@H]1[C@@H]2CC[C@]2(C)[C@@H](C(=O)Cn3ncnn3)CC[C@@H]12", "targetSystem": "GR complex", "label": "True"}
{"molecule": "CC(=O)C1CCC2C3CCC4CC(O)(C#CCn5nccn5)CCC4(C)C3CCC12C (centres unmarked)", "targetSystem": "GR complex", "label": "True"}
{"molecule": "CC(=O)c1ccc(C#C[C@@]2(O)CC[C@@]3(C)[C@H](CC[C@@H]4[C@@H]3CC[C@]3(C)[C@@H](C(=O)CO)CC[C@@H]43)C2)cc1", "targetSystem": "GR complex", "label": "True"}
{"molecule": "CC(=O)[C@H]1CC[C@H]2[C@@H]3CC[C@@H]4C[C@@](O)(C#Cc5cccc(O)c5)CC[C@]4(C)[C@H]3CC[C@]12C", "targetSystem": "GR complex", "label": "False"}
{"molecule": "CC(=O)OCCCC#C[C@@]1(O)CC[C@@]2(C)[C@H](CC[C@@H]3[C@@H]2CC[C@]2(C)[C@@H](C(C)=O)CC[C@@H]32)C1", "targetSystem": "GR complex", "label": "True"}
{"molecule": "CC(=O)C1CCC2C3CCC4CC(O)(C#Cc5ccc(O)cc5)CCC4(C)C3CCC12C (centres unmarked)", "targetSystem": "GR complex", "label": "False"}
{"molecule": "CC(=O)[C@H]1CC[C@H]2[C@@H]3CC[C@@H]4C[C@@](O)(C#CCCCO)CC[C@]4(C)[C@H]3CC[C@]12C", "targetSystem": "GR complex", "label": "True"}
{"molecule": "C[C@@]1(O)CC[C@@]2(C)[C@@H](CC[C@@H]3[C@@H]2CC[C@]2(C)[C@@H](C(=O)Cn4cccn4)CC[C@@H]32)C1", "targetSystem": "GR complex", "label": "False"}
{"molecule": "CC(=O)[C@H]1CC[C@H]2[C@@H]3CC[C@@H]4C[C@@](O)(C#CCCCC#N)CC[C@]4(C)[C@H]3CC[C@]12C", "targetSystem": "GR complex", "label": "False"}
{"molecule": "C[C@]12C[C@H](O)[C@H]3[C@@H](CCC4=CC(=O)CC[C@@]43C)[C@@H]1CC[C@@H]2C(=O)CO [4-Pregnen-11β,21-diol-3,20-dione, reference compound]", "targetSystem": "GR complex", "label": "False"}
{"molecule": "C[C@]12CC[C@H]3[C@@H](CC[C@@H]4C[C@@](O)(C#CCCO)CC[C@@H]43)[C@@H]1CC[C@@H]2C(=O)Cn1ccnn1", "targetSystem": "GR complex", "label": "False"}
{"molecule": "CC(=O)[C@H]1CC[C@H]2[C@@H]3CC[C@@H]4C[C@@](O)(C#CCCO)CC[C@]4(C)[C@H]3CC[C@]12C", "targetSystem": "GR complex", "label": "True"}
